Taken from patent US20140128352A1.

target: flavin binding site of complex I (IF) (Rattus norvegicus, UniProt Q5XIH3); construct: freshly isolated muscle mitochondria were assayed; from tissue; host or cells: rat skeletal muscle mitochondria (Wistar, Harlan Laboratories); assay: High-throughput screen: ROS production from flavin binding site of complex I (IF); format: biochemical; conditions: Table 9; percent change in ROS from DMSO controls
Sequence (Q5XIH3 21-464 limits assumed, one chain of several): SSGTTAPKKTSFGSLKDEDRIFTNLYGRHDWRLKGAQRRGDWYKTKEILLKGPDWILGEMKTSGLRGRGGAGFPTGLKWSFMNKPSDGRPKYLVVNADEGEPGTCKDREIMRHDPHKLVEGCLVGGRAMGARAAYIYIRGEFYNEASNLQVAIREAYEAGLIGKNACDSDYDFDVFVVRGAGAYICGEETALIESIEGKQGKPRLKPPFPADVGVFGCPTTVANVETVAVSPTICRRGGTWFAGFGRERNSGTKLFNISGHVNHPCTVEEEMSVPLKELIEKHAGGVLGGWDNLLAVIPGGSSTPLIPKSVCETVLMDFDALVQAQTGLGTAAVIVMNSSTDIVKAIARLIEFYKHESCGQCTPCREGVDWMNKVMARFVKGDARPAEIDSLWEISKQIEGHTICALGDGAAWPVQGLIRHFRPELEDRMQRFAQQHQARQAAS
In plain terms, low IF, meaning strictly below -20, gives true (1), and everything else gives false (0).

Past entries and their recorded results:
Cc1ccc(C)c(CN(CCCN(C)C)CCCN(C)C)c1; true (1)
COc1ccccc1/C=C/c1nc(O)nc(O)c1[N+](=O)[O-]; true (1)
Cc1cc(C)c(S(=O)(=O)N2CCCC2=O)c(C)c1; false (0)
CCN1CCN(C2CCC(C(C)(C)C)CC2)CC1 (stereo not shown); true (1)
Fc1ccc(N2CCN(CC(c3ccccc3)c3ccccc3)CC2)cc1; false (0)

Prompt: Is IF strictly under -20 for the entry O=C(Nc1ccccc1F)[C@@H]1C2C=CC(C2)[C@@H]1C(=O)O (stereo partly shown) ?
Response: true (1)

Prompt: Would you kindly verify if IF of `c1cc2c3c(ccc(CSCCc4ccncc4)c3c1)CC2` is strictly less than -20?
Response: false (0)

Prompt: I'd appreciate it if you could check whether `Fc1ccc(SCCc2ccccn2)cc1` has IF smaller than -20.
Response: false (0)

Prompt: Consider `Cc1ccc(NS(=O)(=O)c2ccc(C3CCCCC3)cc2)cc1` . Does its IF lie strictly below -20?
Response: false (0)
